# Target Desc: soluble guanylate cyclase (sGC) (Homo sapiens (Human), UniProt Q02108+Q02153)
# Sequence (Q02153 whole entry): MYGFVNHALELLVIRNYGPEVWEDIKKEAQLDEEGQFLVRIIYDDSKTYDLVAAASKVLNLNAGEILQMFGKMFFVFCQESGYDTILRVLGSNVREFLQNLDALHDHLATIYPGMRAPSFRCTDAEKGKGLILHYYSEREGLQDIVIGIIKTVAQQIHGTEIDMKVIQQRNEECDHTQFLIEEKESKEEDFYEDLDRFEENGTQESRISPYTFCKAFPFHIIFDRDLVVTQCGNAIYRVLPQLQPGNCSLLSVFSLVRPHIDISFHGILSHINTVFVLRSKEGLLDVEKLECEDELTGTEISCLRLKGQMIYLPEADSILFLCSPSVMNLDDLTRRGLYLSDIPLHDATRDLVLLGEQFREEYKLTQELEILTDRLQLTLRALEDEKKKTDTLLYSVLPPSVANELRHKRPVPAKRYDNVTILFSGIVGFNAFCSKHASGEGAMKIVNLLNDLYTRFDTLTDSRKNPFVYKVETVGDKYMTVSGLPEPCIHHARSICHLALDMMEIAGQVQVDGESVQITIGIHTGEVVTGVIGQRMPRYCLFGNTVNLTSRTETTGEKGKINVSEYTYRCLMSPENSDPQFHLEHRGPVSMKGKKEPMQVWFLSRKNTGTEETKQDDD
# Sequence (Q02108 whole entry): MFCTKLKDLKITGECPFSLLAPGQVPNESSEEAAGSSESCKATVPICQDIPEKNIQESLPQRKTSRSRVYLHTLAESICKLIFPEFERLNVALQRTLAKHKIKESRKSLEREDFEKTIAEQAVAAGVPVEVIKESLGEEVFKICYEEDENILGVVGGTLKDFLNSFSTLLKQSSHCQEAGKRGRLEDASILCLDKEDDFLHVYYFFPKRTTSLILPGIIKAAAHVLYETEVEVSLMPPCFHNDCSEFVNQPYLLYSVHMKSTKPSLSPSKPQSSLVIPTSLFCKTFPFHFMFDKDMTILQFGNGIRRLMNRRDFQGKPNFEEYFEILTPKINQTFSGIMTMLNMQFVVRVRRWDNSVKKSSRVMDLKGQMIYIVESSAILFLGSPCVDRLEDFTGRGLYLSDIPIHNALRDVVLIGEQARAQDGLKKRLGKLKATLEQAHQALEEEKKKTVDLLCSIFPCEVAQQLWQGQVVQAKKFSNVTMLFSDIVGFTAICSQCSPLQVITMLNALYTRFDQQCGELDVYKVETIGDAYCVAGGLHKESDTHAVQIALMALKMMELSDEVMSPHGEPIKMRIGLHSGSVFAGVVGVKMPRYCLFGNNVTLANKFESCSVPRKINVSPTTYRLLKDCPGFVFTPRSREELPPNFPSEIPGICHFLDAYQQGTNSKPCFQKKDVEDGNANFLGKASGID
# Assay Text: sGC-HEK-cGMP assay, new protocol with DETA-NONOate, LC/MS detection (Example 2C)
# Type: cell-based
# Measurement Parameters: read-out: Absolute EC50 (uM) - binned
Entries annotated with measured EC50

>  <Compound>
Fc1ccccc1Cn1nc(-c2ncc(F)c(NCCSC(F)(F)F)n2)cc1-c1ccon1

>  <Result>
< 0.1 µM

$$$$
>  <Compound>
CN(Cc1nc(C(=O)O)cs1)c1nc(-c2cc(-c3ccon3)n(Cc3ccccc3F)n2)ncc1F

>  <Result>
0.101 to 1 µM

$$$$
>  <Compound>
CN(c1nc(-c2cc(-c3ccon3)n(Cc3ccccc3F)n2)ncc1F)[C@@H]1CC[C@H](C(=O)O)C1

>  <Result>
< 0.1 µM

$$$$
>  <Compound>
Cc1ccc(S(=O)(=O)NC(C)C(=O)Nc2ccnc(-c3cc(-c4ccon4)n(Cc4ccccc4F)n3)n2)cc1 (stereo not shown)

>  <Result>
> 1 µM

$$$$

Entry O=C(O)CC(Nc1nc(-c2cc(-c3ccon3)n(Cc3ccccc3F)n2)ncc1F)C(F)(F)F (stereo not shown) : reported EC50 = ?
0.101 to 1 µM

Now consider CC(C(=O)Nc1nc(-c2cc(-c3ccon3)n(Cc3ccccc3F)n2)ncc1F)S(C)(=O)=O (stereo not shown) and answer again.
0.101 to 1 µM

Now consider C[C@@H]1[C@H](C(=O)O)CCCN1c1nc(-c2cc(-c3ccon3)n(Cc3ccccc3F)n2)ncc1F and answer again.
< 0.1 µM

----------
Entries annotated with measured EC50
# Target Desc: soluble guanylate cyclase (sGC) (Homo sapiens (Human), UniProt Q02108+Q02153)
# Assay Text: sGC-HEK-cGMP assay, new protocol with DETA-NONOate, LC/MS detection (Example 2C)
# Type: cell-based
# Measurement Parameters: read-out: Absolute EC50 (uM) - binned

>  <Molecule>
O=C(NS(=O)(=O)C1CCN(c2nc(-c3cc(-c4ccon4)n(Cc4ccccc4F)n3)ncc2F)C1)C1CC1 (stereo not shown)

>  <Measured Quantity>
EC50

>  <Result>
< 0.1 µM

$$$$
>  <Molecule>
NC(=O)CC(Nc1nc(-c2cc(-c3ccon3)n(Cc3ccccc3F)n2)ncc1F)C(F)(F)F (stereo not shown)

>  <Measured Quantity>
EC50

>  <Result>
> 1 µM

$$$$
>  <Molecule>
C[C@H]1CCCN(c2nc(-c3cc(C#N)n(Cc4ccccc4F)n3)ncc2F)[C@H]1C(=O)O

>  <Measured Quantity>
EC50

>  <Result>
0.101 to 1 µM

$$$$
>  <Molecule>
CC(=O)c1cc(-c2ncc(F)c(NC(CO)CO)n2)nn1Cc1ccccc1F

>  <Measured Quantity>
EC50

>  <Result>
> 1 µM

$$$$

Entry CC1(C)CCN(c2ccnc(-c3cc(-c4ccon4)n(Cc4ccccc4F)n3)n2)C1=O : reported EC50 = ?
0.101 to 1 µM

----------
# Target Desc: soluble guanylate cyclase (sGC) (Homo sapiens (Human), UniProt Q02108+Q02153)
# Assay Text: sGC-HEK-cGMP assay, new protocol with DETA-NONOate, LC/MS detection (Example 2C)
# Format: cell-based
# Measurement Parameters: read-out: Absolute EC50 (uM) - binned
Entries annotated with measured EC50

>  <Compound>
OC[C@@H](O)CN(CC1CC1)c1nc(-c2cc(-c3ccon3)n(Cc3ccccc3F)n2)ncc1F [Compound I-322]

>  <Measured Quantity>
EC50

>  <Result>
< 0.1 µM

$$$$
>  <Compound>
CC(=O)NS(=O)(=O)C1CCN(c2nc(-c3cc(-c4ccon4)n(Cc4ccccc4F)n3)ncc2F)CC1 [Compound I-426]

>  <Measured Quantity>
EC50

>  <Result>
< 0.1 µM

$$$$
>  <Compound>
Cc1cn(CC(=O)Nc2ccnc(-c3cc(-c4ccon4)n(Cc4ccccc4F)n3)n2)c(=O)[nH]c1=O [Compound I-571]

>  <Measured Quantity>
EC50

>  <Result>
> 1 µM

$$$$
>  <Compound>
Cc1cc(-c2ncc(F)c(NC(CO)CO)n2)nn1Cc1ccccc1F [Compound I-413]

>  <Measured Quantity>
EC50

>  <Result>
> 1 µM

$$$$
>  <Compound>
OCCN(CCO)c1nc(-c2cc(-c3ccon3)n(Cc3ccccc3F)n2)ncc1F [Compound I-428]

>  <Measured Quantity>
EC50

>  <Result>
< 0.1 µM

$$$$
>  <Compound>
O=C(Nc1ccnc(-c2cc(-c3ccon3)n(Cc3ccccc3F)n2)n1)c1cscn1 [Compound I-549]

>  <Measured Quantity>
EC50

>  <Result>
> 1 µM

$$$$
>  <Compound>
COC(=O)Nc1nc(-c2cc(-c3ccon3)n(Cc3ccccc3F)n2)ncc1N [Compound I-542]

>  <Measured Quantity>
EC50

>  <Result>
0.101 to 1 µM

$$$$

Kindly review the next compound as well.
Entry CC(=O)NCC(=O)Nc1ccnc(-c2cc(-c3ccon3)n(Cc3ccccc3F)n2)n1 [Compound I-535] : reported EC50 = ?
0.101 to 1 µM

----------
# Target Desc: soluble guanylate cyclase (sGC) (Homo sapiens (Human), UniProt Q02108+Q02153)
# Assay Text: sGC-HEK-cGMP assay, new protocol with DETA-NONOate, LC/MS detection (Example 2C)
# Format: cell-based
# Measurement Parameters: read-out: Absolute EC50 (uM) - binned
Entries annotated with measured EC50

Here is how some molecules turned out for EC50.
>  <Molecule>
OC[C@H]1CCN(c2nc(-c3cc(-c4ccon4)n(Cc4ccccc4F)n3)ncc2F)[C@@H](CO)C1

>  <Result>
< 0.1 µM

$$$$
>  <Molecule>
CC(C)NC(=O)NCC(=O)Nc1ccnc(-c2cc(-c3ccon3)n(Cc3ccccc3F)n2)n1

>  <Result>
0.101 to 1 µM

$$$$
>  <Molecule>
NC(=O)CCNc1nc(-c2cc(-c3ccon3)n(Cc3ccccc3F)n2)ncc1F

>  <Result>
< 0.1 µM

$$$$
>  <Molecule>
C[C@H]1CCCN(c2ccnc(-c3cc(-c4ccon4)n(Cc4ccccc4F)n3)n2)[C@H]1C(=O)O

>  <Result>
< 0.1 µM

$$$$
>  <Molecule>
COC(=O)Nc1nc(-c2cc(-c3ccon3)n(Cc3ccccc3F)n2)ncc1[N+](=O)[O-]

>  <Result>
> 1 µM

$$$$

Entry NC(CNc1nc(-c2cc(-c3ccon3)n(Cc3ccccc3F)n2)ncc1F)C(F)(F)F (stereo not shown) : reported EC50 = ?
< 0.1 µM

Now consider O=C1NCC[C@@H]1Nc1nc(-c2cc(-c3ccon3)n(Cc3ccccc3F)n2)ncc1F and answer again.
0.101 to 1 µM

----------
# Target Desc: soluble guanylate cyclase (sGC) (Homo sapiens (Human), UniProt Q02108+Q02153)
# Assay Text: sGC-HEK-cGMP assay, new protocol with DETA-NONOate, LC/MS detection (Example 2C)
# Type: cell-based
# Measurement Parameters: read-out: Absolute EC50 (uM) - binned
Entries annotated with measured EC50

Here is how some compounds turned out for EC50.
>  <Structure String>
O=C(Nc1ccnc(-c2cc(-c3ccon3)n(Cc3ccccc3F)n2)n1)c1cocn1

>  <EC50>
> 1 µM

$$$$
>  <Structure String>
C[C@H]1CCCN(c2nc(-c3cc(-c4ccon4)n(Cc4ccccc4F)n3)ncc2F)[C@H]1C(=O)NS(=O)(=O)C1CC1

>  <EC50>
0.101 to 1 µM

$$$$
>  <Structure String>
CN(CC1(C(=O)O)CC1)c1nc(-c2cc(-c3nccs3)n(Cc3ccccc3F)n2)ncc1F

>  <EC50>
< 0.1 µM

$$$$
>  <Structure String>
O=C(Cc1nccs1)Nc1ccnc(-c2cc(-c3ccon3)n(Cc3ccccc3F)n2)n1

>  <EC50>
0.101 to 1 µM

$$$$
>  <Structure String>
CC1(C(=O)Nc2ccnc(-c3cc(-c4ccon4)n(Cc4ccccc4F)n3)n2)CC1

>  <EC50>
> 1 µM

$$$$
>  <Structure String>
N#Cc1cc(-c2ncc(F)c(NCC(O)(C(F)(F)F)C(F)(F)F)n2)nn1Cc1ccccc1F

>  <EC50>
> 1 µM

$$$$

Kindly review the next compound as well.
Entry O=S(=O)(CCNc1nc(-c2cc(-c3ccon3)n(Cc3ccccc3F)n2)ncc1F)NC[C@H](O)CO : reported EC50 = ?
0.101 to 1 µM

----------
# Target Desc: soluble guanylate cyclase (sGC) (Homo sapiens (Human), UniProt Q02108+Q02153)
# Assay Text: sGC-HEK-cGMP assay, new protocol with DETA-NONOate, LC/MS detection (Example 2C)
# Assay type: cell-based
# Measurement Parameters: read-out: Absolute EC50 (uM) - binned
Entries annotated with measured EC50

>  <Molecule>
CC(C)(C(=O)Nc1nc(-c2cc(-c3ccon3)n(Cc3ccccc3F)n2)ncc1F)S(C)(=O)=O [Compound I-582]

>  <EC50>
> 1 µM

$$$$
>  <Molecule>
O=c1nc[nH]n1-c1nc(-c2cc(-c3ccon3)n(Cc3ccccc3F)n2)ncc1F [Compound I-442]

>  <EC50>
> 1 µM

$$$$
>  <Molecule>
CCOc1c(Nc2ccnc(-c3cc(-c4ccon4)n(Cc4ccccc4F)n3)n2)c(=O)c1=O [Compound I-327]

>  <EC50>
> 1 µM

$$$$
>  <Molecule>
OC(CNc1ccnc(-c2cc(-c3ccon3)n(Cc3ccccc3F)n2)n1)(C(F)(F)F)C(F)(F)F [Compound I-500]

>  <EC50>
0.101 to 1 µM

$$$$
>  <Molecule>
OC(C1CN(c2nc(-c3cc(-c4ccon4)n(Cc4ccccc4F)n3)ncc2F)C1)(C(F)(F)F)C(F)(F)F [Compound I-357]

>  <EC50>
> 1 µM

$$$$

Kindly review the next molecule as well.
Entry Oc1nc(-c2cc(-c3ccon3)n(CCC(F)(F)F)n2)ncc1F [Compound I-507] : reported EC50 = ?
> 1 µM
